Target: T1, TIGIT (human)
T1 chain: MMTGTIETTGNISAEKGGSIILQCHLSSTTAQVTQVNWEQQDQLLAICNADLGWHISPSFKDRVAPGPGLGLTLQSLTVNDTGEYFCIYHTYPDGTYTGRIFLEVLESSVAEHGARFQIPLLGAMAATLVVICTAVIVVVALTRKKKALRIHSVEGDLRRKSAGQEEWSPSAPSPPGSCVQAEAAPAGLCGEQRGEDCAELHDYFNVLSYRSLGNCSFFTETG
Experiment: cell-based or functional assay
Reported IL-2 luciferase reporter, Normalized Fold Change from CD155-ECD values for the following binders.
The figure you give is taken to be in fold; do not add the unit.

variant CD155 IgV-Fc P18T, M55L, T61R, L79P, F91S, V106I, T107M (Fc fusion) WPPPGTGDVVVQAPTQVTGFLGDSVTLPCYLQVPNMEVTHVSQLTWARHGESGSLAVFHQRQGPSYSESKRLEFVAARPGAELRNASLRMSGLRVEDEGNYTCLFIMFPQGSRSVDIWLRVLGSGGGGSEPKSSDKTHTCPPCPAPEAEGAPSVFLFPPKPKDTLMISRTPEVTCVVVDVSHEDPEVKFNWYVDGVEVHNAKTKPREEQYNSTYRVVSVLTVLHQDWLNGKEYKCKVSNKALPAPIEKTISKAKGQPREPQVYTLPPSRDELTKNQVSLTCLVKGFYPSDIAVEWESNGQPENNYKTTPPVLDSDGSFFLYSKLTVDKSRWQQGNVFSCSVMHEALHNHYTQKSLSLSPGK : 4.5
variant CD155 IgV-Fc P18T, G19D, M36T, S54N, L79P, L83Q, F91S, T107M, F108Y (Fc fusion) WPPPGTGDVVVQAPTQVTDFLGDSVTLPCYLQVPNTEVTHVSQLTWARHGESGNMAVFHQTQGPSYSESKRLEFVAARPGAEQRNASLRMSGLRVEDEGNYTCLFVMYPQGSRSVDIWLRVLGSGGGGSEPKSSDKTHTCPPCPAPEAEGAPSVFLFPPKPKDTLMISRTPEVTCVVVDVSHEDPEVKFNWYVDGVEVHNAKTKPREEQYNSTYRVVSVLTVLHQDWLNGKEYKCKVSNKALPAPIEKTISKAKGQPREPQVYTLPPSRDELTKNQVSLTCLVKGFYPSDIAVEWESNGQPENNYKTTPPVLDSDGSFFLYSKLTVDKSRWQQGNVFSCSVMHEALHNHYTQKSLSLSPGK : 0.3
variant CD155 IgV-Fc P18S, Q32R, Q62K, R78G, L79P, F91S, T107A, R113W (Fc fusion) WPPPGTGDVVVQAPTQVSGFLGDSVTLPCYLRVPNMEVTHVSQLTWARHGESGSMAVFHQTKGPSYSESKRLEFVAAGPGAELRNASLRMSGLRVEDEGNYTCLFVAFPQGSWSVDIWLRVLGSGGGGSEPKSSDKTHTCPPCPAPEAEGAPSVFLFPPKPKDTLMISRTPEVTCVVVDVSHEDPEVKFNWYVDGVEVHNAKTKPREEQYNSTYRVVSVLTVLHQDWLNGKEYKCKVSNKALPAPIEKTISKAKGQPREPQVYTLPPSRDELTKNQVSLTCLVKGFYPSDIAVEWESNGQPENNYKTTPPVLDSDGSFFLYSKLTVDKSRWQQGNVFSCSVMHEALHNHYTQKSLSLSPGK : -2.2
variant CD155 IgV-Fc P18S, D23G, C29R, N35D, E37G, M55I, Q62K, S65A, S67G, R78G, L79P, F91S, L104M, T107M, Q110R (Fc fusion) WPPPGTGDVVVQAPTQVSGFLGGSVTLPRYLQVPDMGVTHVSQLTWARHGESGSIAVFHQTKGPAYGESKRLEFVAAGPGAELRNASLRMSGLRVEDEGNYTCMFVMFPRGSRSVDIWLRVLGSGGGGSEPKSSDKTHTCPPCPAPEAEGAPSVFLFPPKPKDTLMISRTPEVTCVVVDVSHEDPEVKFNWYVDGVEVHNAKTKPREEQYNSTYRVVSVLTVLHQDWLNGKEYKCKVSNKALPAPIEKTISKAKGQPREPQVYTLPPSRDELTKNQVSLTCLVKGFYPSDIAVEWESNGQPENNYKTTPPVLDSDGSFFLYSKLTVDKSRWQQGNVFSCSVMHEALHNHYTQKSLSLSPGK : 1.2
variant CD155 IgV-Fc P18T, T39S, S52P, S54R, L79P, F91S, T107M (Fc fusion) WPPPGTGDVVVQAPTQVTGFLGDSVTLPCYLQVPNMEVSHVSQLTWARHGEPGRMAVFHQTQGPSYSESKRLEFVAARPGAELRNASLRMSGLRVEDEGNYTCLFVMFPQGSRSVDIWLRVLGSGGGGSEPKSSDKTHTCPPCPAPEAEGAPSVFLFPPKPKDTLMISRTPEVTCVVVDVSHEDPEVKFNWYVDGVEVHNAKTKPREEQYNSTYRVVSVLTVLHQDWLNGKEYKCKVSNKALPAPIEKTISKAKGQPREPQVYTLPPSRDELTKNQVSLTCLVKGFYPSDIAVEWESNGQPENNYKTTPPVLDSDGSFFLYSKLTVDKSRWQQGNVFSCSVMHEALHNHYTQKSLSLSPGK : -0.1

Prompt: Please supply the value of reported IL-2 luciferase reporter, Normalized Fold Change from CD155-ECD for the item variant CD155 IgV-Fc P18S, H59N, V75A, L79P, A81T, F91S, L104M, T107M (Fc fusion) WPPPGTGDVVVQAPTQVSGFLGDSVTLPCYLQVPNMEVTHVSQLTWARHGESGSMAVFNQTQGPSYSESKRLEFAAARPGTELRNASLRMSGLRVEDEGNYTCMFVMFPQGSRSVDIWLRVLGSGGGGSEPKSSDKTHTCPPCPAPEAEGAPSVFLFPPKPKDTLMISRTPEVTCVVVDVSHEDPEVKFNWYVDGVEVHNAKTKPREEQYNSTYRVVSVLTVLHQDWLNGKEYKCKVSNKALPAPIEKTISKAKGQPREPQVYTLPPSRDELTKNQVSLTCLVKGFYPSDIAVEWESNGQPENNYKTTPPVLDSDGSFFLYSKLTVDKSRWQQGNVFSCSVMHEALHNHYTQKSLSLSPGK
Response: 3.5

Prompt: Supply recorded IL-2 luciferase reporter, Normalized Fold Change from CD155-ECD for variant CD155 IgV-Fc V11A, P18T, N35S, L79P, S87T, F91S (Fc fusion) WPPPGTGDVVAQAPTQVTGFLGDSVTLPCYLQVPSMEVTHVSQLTWARHGESGSMAVFHQTQGPSYSESKRLEFVAARPGAELRNATLRMSGLRVEDEGNYTCLFVTFPQGSRSVDIWLRVLGSGGGGSEPKSSDKTHTCPPCPAPEAEGAPSVFLFPPKPKDTLMISRTPEVTCVVVDVSHEDPEVKFNWYVDGVEVHNAKTKPREEQYNSTYRVVSVLTVLHQDWLNGKEYKCKVSNKALPAPIEKTISKAKGQPREPQVYTLPPSRDELTKNQVSLTCLVKGFYPSDIAVEWESNGQPENNYKTTPPVLDSDGSFFLYSKLTVDKSRWQQGNVFSCSVMHEALHNHYTQKSLSLSPGK here.
Response: 2.1
